- Test system: HBV viral production from HepAD38 cells
- EXPERIMENT DESCRIPTION: Activity of test compounds on viral production from HepAD38 cells (viral load by qPCR of HBV core sequence in supernatant)
- Format: cell-based
- TEST CONTEXT: Hepatitis B virus, 120 h, 5 days incubation, HBV DNA in supernatant by qPCR, top concentration 10 μM, read-out: Viral Load EC50 Activity range
pEC50: −log10 of the molar value.
PARAMETER MEASURED: pEC50

The cases that follow already have their pEC50 on record.
Suppose we examine the compound "CN1[C@@H](C(=O)Nc2ccc(F)c(Cl)c2)C[C@@H](c2cc(-c3cncnc3)cs2)NS1(=O)=O" ; what pEC50 value has been reported?
5.30 to 6.00

Suppose we examine the compound "CN1[C@H](C(=O)Nc2ccc(F)c(Cl)c2)C[C@H](c2ccc3c(c2)ncn3C)NS1(=O)=O" ; what pEC50 value has been reported?
5.30 to 6.00

Suppose we examine the compound "CN1[C@@H](C(=O)Nc2ccc(F)c(Cl)c2)C[C@@H](c2ncc(-c3ccccc3)s2)NS1(=O)=O" ; what pEC50 value has been reported?
5.30 to 6.00

For the next question, use this compound.
Suppose we examine the compound "CN1[C@H](C(=O)Nc2ccc(F)c(Br)c2)C[C@H](c2ncc(-c3cn(C)cn3)s2)NS1(=O)=O" ; what pEC50 value has been reported?
> 6.00

###

Assign EC50 to each entry below.
- System: HBV viral production from HepAD38 cells
- EXPERIMENT DESCRIPTION: Activity of test compounds on viral production from HepAD38 cells (viral load by qPCR of HBV core sequence in supernatant)
- Assay type: cell-based
- TEST CONTEXT: Hepatitis B virus, 120 h, 5 days incubation, HBV DNA in supernatant by qPCR, top concentration 10 μM, read-out: Viral Load EC50 Activity range

Can you look up EC50 on HBV viral production from HepAD38 cells for [2H]C([2H])([2H])N1[C@@H](C(=O)Nc2ccc(F)c(Cl)c2)CC(c2ccc(-c3cn(C)cn3)s2)NS1(=O)=O (stereo in doubt) ?
< 1000 nM

For every item in the list below, what is its measured EC50?
1. CN1[C@@H](C(=O)Nc2ccc(F)c(Cl)c2)C[C@@H](c2ncc(-c3cn(C)cn3)s2)NS1(=O)=O
2. CCc1sc([C@H]2C[C@@H](C(=O)Nc3ccc(F)c(Cl)c3)N(C)S(=O)(=O)N2)cc1-c1cnn(C)c1

1. > 5000 nM
2. < 1000 nM

###

- Test system: HBV viral production from HepAD38 cells
- EXPERIMENT DESCRIPTION: Activity of test compounds on viral production from HepAD38 cells (viral load by qPCR of HBV core sequence in supernatant)
- Assay type: cell-based
- TEST CONTEXT: Hepatitis B virus, 120 h, 5 days incubation, HBV DNA in supernatant by qPCR, top concentration 10 μM, read-out: Viral Load EC50 Activity range
pEC50: −log10 of the molar value.
PARAMETER MEASURED: pEC50

The cases that follow already have their pEC50 on record.
Can you look up pEC50 on HBV viral production from HepAD38 cells for CN1C(C(=O)Nc2ccc(F)c(Cl)c2)CC(c2ncc(-c3cn(C)cn3)s2)NS1(=O)=O (racemic) ?
> 6.00

Can you look up pEC50 on HBV viral production from HepAD38 cells for "CN1[C@H](C(=O)Nc2ccc(F)c(Cl)c2)C[C@H](c2ncc(-c3cccnc3)s2)NS1(=O)=O" ?
> 6.00

For every item in the list below, what is its measured pEC50?
1. CN1[C@@H](C(=O)Nc2ccc(F)c(Cl)c2)C[C@@H](c2ccc(-c3c[nH]cn3)s2)NS1(=O)=O
2. Cc1nn(C)c(C)c1-c1csc([C@@H]2C[C@H](C(=O)Nc3ccc(F)c(Cl)c3)N(C)S(=O)(=O)N2)c1 (relative stereo)

["5.30 to 6.00", "> 6.00"]

For every item in the list below, what is its measured pEC50?
1. CCn1cc(-c2ccc([C@H]3C[C@@H](C(=O)Nc4ccc(F)c(Cl)c4)N(C)S(=O)(=O)N3)s2)cn1
2. CN1[C@H](C(=O)Nc2ccc(F)c(Cl)c2)C[C@H](c2cc(-c3ccccn3)cs2)NS1(=O)=O

1: > 6.00; 2: > 6.00
